target: PDZD7 PDZ tandem P1P2 G103R (mouse); test: other fluorescence titration; tryptophan fluorescence (excitation 295 nm) of P1P2 at 2 µM in Phosphate Buffer pH 6.6 (50 mM) on progressive addition of ADGRV1pbm peptide or the cytoplasmic domain; apparent Kd
VALUE_TYPE: pKd
Give bare numbers, as −log10 of the molar value.

Q: Endpoint output: pKd of VELRRIPIADTHL (ADGRV1, last 13 residues, free C-terminal carboxylate as printed (-COOH); The other ADGRV1 constructs are murine) [ADGRV1pbm peptide (last 13 residues of ADGRV1, with its PDZ binding motif)] . Value?
Ans: 5.72
